The following compounds are listed with their measured GI50 values.
- Test system: DU-145
- run description: NCI tumour cell line growth inhibition, 48 h
Activity calls are given as the source filed them. No stated cut-off is given here; in the data, active = GI50 up to about 1.1 µM and inactive = higher.
quantity: GI50

compound=N=C(N)NS(=O)(=O)c1ccc(NC(=O)c2cccc3c(NNc4ccc(C(=O)O)cc4)c4ccccc4nc23)cc1 measured_value="48.5 µM (inactive)"
compound="NC(CSCc1ccccc1)C(=O)O (centres undefined)" measured_value="> 100 µM (inactive)"
compound="O=C1CC(c2ccccc2)C2(C(=O)NC(=S)NC2=O)C(c2ccccc2)C1 (centres undefined)" measured_value="> 75 µM (inactive)"
compound=Cc1cc(/N=N/c2c(O)ccc3ccccc23)ccc1/N=N/c1cccc([N+](C)(C)C)c1 measured_value="19.6 µM (inactive)"

* * *

- Tested on: NCI-H522
- run description: NCI tumour cell line growth inhibition, 48 h
Counter-ions that a name gives are not always drawn. Active and inactive are the calls of the source. Rule as the data show it: active = GI50 up to about 1.1 µM and inactive = higher.
Outcome codes: class 1 for active, class 0 for inactive

compound=COc1cc2ccnc3c2c(c1OC)-c1coc(SC)c1-3 category="class 0"
compound=O=c1[nH]/c(=C/c2ccc(OCc3ccccc3)cn2)c(=O)[nH]/c1=C/c1ccccc1 category="class 1"
compound=OCCOCn1cc(Cn2ncc3c(SCc4ccccc4)ncnc32)nn1 category="class 0"
compound="CCN(CC)CCCC(C)Nc1ccnc2cc3ccccc3cc12 (configuration not stated)" category="class 0"
compound=CN(C)/C=N\c1cccc2c1NSN2 category="class 0"
compound=COc1cccc(C=C2N=C(c3ccccc3)N(n3c(-c4ccccc4)nc4ccccc4c3=O)C2=O)c1 category="class 0"
compound="NC(=O)C(=O)C1CCC2=C(Sc3ccccc3N2)C1=O (configuration not stated)" category="class 0"
compound=O=C(Cn1ccc(=O)[nH]c1=O)Nc1ccc(C(=O)O)c(O)c1 category="class 0"
compound="N=c1ccn2c(n1)O[C@H]1[C@H](O)[C@@H](CO)O[C@H]12 [ANCITABINE HYDROCHLORIDE]" category="class 0"
compound="CC1=CC(=O)CC(C)(C)C1/C=C/C(C)=C/C=C/C(C)=C/C=C/C=C(C)/C=C/C=C(C)/C=C/C1=C(C)CC(O)CC1(C)C (configuration not stated)" category="class 0"
compound=Oc1ccc2ccccc2c1OCc1nnc(CCCCCCCCc2nnc(COc3c(O)ccc4ccccc34)n2Nc2ccccc2)n1Nc1ccccc1 category="class 0"
compound=Nn1c(-c2ccccc2)n[nH]c1=O category="class 0"
compound=C/C(=N/NC(=S)N1CCCCC1)c1cccc(/C(C)=N\NC(=S)N2CCCCC2)n1 category="class 0"
compound="COC(=O)C(=O)C(C(=O)OC)C(=O)C(=O)Nc1c(Cl)cc([N+](=O)[O-])cc1Cl (configuration not stated)" category="class 0"
compound=CCC(=O)N(O)C(C)(C)C category="class 0"
compound=SCc1ccc(-c2ccc(CS)cc2)cc1 category="class 0"
compound=Cc1cc(C)nc(NS(=O)(=O)c2ccc(Nc3c4ccc(Cl)cc4nc4c(C(=O)NCCN(C)C)cccc34)cc2)n1 category="class 0"

* * *

- System: OVCAR-8
- run description: NCI tumour cell line growth inhibition, 48 h
The source made the active and inactive calls. No stated cut-off is given here; in the data, active = GI50 up to about 1.1 µM and inactive = higher.
quantity: GI50

molecule=CNC(=S)N/N=C(/C)CCC/C(C)=N/NC(=S)NC study_system=OVCAR-8 measured_value="57.4 µM (inactive)"
molecule=CC(=O)O/N=C(/C)c1ccccc1O study_system=OVCAR-8 measured_value="> 100 µM (inactive)"
molecule="C=CCOC(C)(C)C1=CCC(C)CC1 (centres undefined)" study_system=OVCAR-8 measured_value="> 100 µM (inactive)"
molecule="COc1cccc2c1OC1(C=C2)Oc2ccccc2C(=O)N1C (centres undefined)" study_system=OVCAR-8 measured_value="4.68 µM (inactive)"
molecule=CC1=C[C@H](C[C@]2(C)c3c(c4c(C)cccc4oc3=O)O[C@@H]2C)OC1=O study_system=OVCAR-8 measured_value="68.1 µM (inactive)"
molecule="O=C1CSC(/C=C/c2ccccc2)N1c1ccc(-c2ccc(-n3c(-c4ccccc4)nc4ccccc4c3=O)cc2)cc1 (centres undefined)" study_system=OVCAR-8 measured_value="25.1 µM (inactive)"
molecule="Cc1cn(C2CC(O)C(COC(N)=O)O2)c(=O)[nH]c1=O (centres undefined)" study_system=OVCAR-8 measured_value="> 100 µM (inactive)"
molecule=COc1cccc2c1CCc1ccccc1CC2=O study_system=OVCAR-8 measured_value="> 100 µM (inactive)"
molecule=Cc1ccc(-c2c(C#N)c(S)n(NS(=O)(=O)c3ccccc3)c(=O)c2C#N)cc1 study_system=OVCAR-8 measured_value="21.2 µM (inactive)"
molecule=C/C(CN1C(=O)c2ccccc2C1=O)=N\NS(=O)(=O)c1ccc2ccccc2c1 study_system=OVCAR-8 measured_value="> 100 µM (inactive)"
molecule=CCOP(=O)(OCC)/C(C#N)=C/c1c(C)[nH]c2ccccc12 study_system=OVCAR-8 measured_value="> 100 µM (inactive)"
molecule=O=c1[nH]c(Br)nc2c(Br)c[nH]c12 study_system=OVCAR-8 measured_value="> 100 µM (inactive)"
molecule=CCOc1ccc(/C=C/c2cc(OC)c(OC)c(OC)c2)cc1 study_system=OVCAR-8 measured_value="3.9 µM (inactive)"
molecule=CCN(C(C)=O)c1cnc(/C=N/NC(N)=S)c2ccccc12 study_system=OVCAR-8 measured_value="2.29 µM (inactive)"
molecule=N=c1oc2ccccc2cc1-c1nc2ccccc2[nH]1 study_system=OVCAR-8 measured_value="71.6 µM (inactive)"
molecule="C=C1CC(OC)(C(OC)C(=O)N(C)[C@H]2OCO[C@H]3C2O[C@H](C[C@@H](COC)OC)C(C)(C)C3OC)O[C@H](C)[C@@H]1C (some centres undefined)" study_system=OVCAR-8 measured_value="8.43 µM (inactive)"
molecule="CNc1cccc2c1C(C)C[C@]1(C)C(=O)Nc3ccccc3[C@H]21 (some centres undefined)" study_system=OVCAR-8 measured_value="19.1 µM (inactive)"
molecule="CC(C)(C)C(=O)CC1=Nc2ccccc2SC1(O)CC(=O)C(C)(C)C (centres undefined)" study_system=OVCAR-8 measured_value="21.9 µM (inactive)"
molecule=O=C(O)c1nc2cc(C(F)(F)F)ccc2nc1Nc1ccc(F)cc1 study_system=OVCAR-8 measured_value="19.4 µM (inactive)"
molecule=CCOC(=O)C1(Cc2ccccc2)C=CN(C(=O)c2ccccc2)C=C1 study_system=OVCAR-8 measured_value="34.4 µM (inactive)"
molecule="Cc1cc(C)c2c(c1)CC1(Cc3c(C)ccc(C)c3C1=O)C2=O (centres undefined)" study_system=OVCAR-8 measured_value="> 100 µM (inactive)"
molecule=CC1=C(C(=O)OCc2ccncc2)C(C2=C(C)SCCS2)C(C(=O)OCc2ccncc2)=C(C)N1 study_system=OVCAR-8 measured_value="26.4 µM (inactive)"
molecule=N#Cc1cc(NC(=O)c2ccccc2)c(=O)n2c1[nH]c1ccccc12 study_system=OVCAR-8 measured_value="38.3 µM (inactive)"
molecule="O=C(OCCCl)C1OC(n2cc(F)c(=O)[nH]c2=O)CC1O (centres undefined)" study_system=OVCAR-8 measured_value="> 100 µM (inactive)"

* * *

- System: HCT-15
Peptide text beside a SMILES is read from it. * marks the point of attachment. OSu = O=C1CCC(=O)N1O*
quantity: GI50

compound="COc1ccc(S(=O)(=O)N2C(=O)CCC2C(=O)NN)cc1 (stereo unspecified)" quantity=GI50 measured_value="> 100 µM"
compound="NCCCCC(NC(=O)C(N)Cc1ccc(O)cc1)C(=O)NC(CCCCN)C(=O)NC(CCCCN)C(=O)ON1C(=O)CCC1=O (stereo unspecified) (H-YKKK-OSu; configuration not given here)" quantity=GI50 measured_value="> 100 µM"
compound="C=CCOC(C)(C)C1=CCC(C)CC1 (stereo unspecified)" quantity=GI50 measured_value="> 100 µM"
compound="C=C(C)CC1(O[Si](C)(C)C)C(=O)C(OCC)=C1OCC (stereo unspecified)" quantity=GI50 measured_value="> 100 µM"
compound=Cc1cc2c(cc1Cl)SC(NNC1=NCCN1)=NS2(=O)=O quantity=GI50 measured_value="> 10 µM"
compound=CCC(=O)N(O)C(C)(C)C quantity=GI50 measured_value="> 100 µM"
compound=COCn1cnc2c(=O)nc(SC)n(-c3ccccc3)c21 quantity=GI50 measured_value="> 100 µM"
compound="C=CCOC(=O)NC1C(OC(C)[C@@H](NC(=O)OCc2ccccc2)C(=O)OC(C)(C)C)OC(COC(C)=O)C(OC(C)=O)C1OC(C)=O (stereo partly specified)" quantity=GI50 measured_value="> 100 µM"
compound=O=C1/C(=C/c2ccc(C(=O)O)cc2)CNC/C1=C\c1ccc(C(=O)O)cc1 quantity=GI50 measured_value="> 100 µM"
compound=COc1ccc2c(=O)cc(-c3ccc(OC)c(OC)c3OC)oc2c1 quantity=GI50 measured_value="> 100 µM"
compound=Nc1cc(=O)n(-c2ccccc2)c(=S)n1-c1ccccc1 quantity=GI50 measured_value="> 100 µM"
